Exercise: for every item that follows, state its recorded growth.
- System: MDA-MB-231 breast
- ASSAY: NCI-60 one-dose screen, 48 h (100 = growth as untreated, 0 = no growth, -100 = all killed)
- ASSAY_CONTEXT: 10 µM unless noted
The panel holds about 83,000 compounds, 20% with a hit somewhere; the sample as a whole holds those more often.
Give bare numbers, in %.

Please review the entries below; each comes with its answer.
Request: Recorded growth of NS(=O)(=O)c1cc(Br)c2c(c1)S(=O)(=O)NCN2 , please.
Result: 118

Request: Recorded growth of O=c1[nH]c(-c2ccccn2)nc2sc3c(c12)CCCCCC3 , please.
Result: 49.3

Request: Recorded growth of CC1(C)N=C(N)N=C(N)N1c1cccc(/C=C/C=C/c2cccc([N+](=O)[O-])c2)c1 , please.
Result: 81.3

Request: Recorded growth of COc1cc(C(F)(F)F)ccc1-c1cc(-c2ccc(F)cc2)n[nH]1 , please.
Result: 80.2

Here is another molecule to look at.
Request: Recorded growth of O=C1c2ccccc2-c2cn(Cc3ccccc3)c3cccc(c23)C1c1cccnc1 (stereo not given) , please.
Result: 52.4
